Attribution: ChEMBL document CHEMBL4229345

Assay: Drug metabolism in human liver S9 fraction assessed as CYP450 mediated compound hydrolysis by measuring parent compound remaining at 5 uM measured after 15 mins in presence of NADPH by RP-HPLC analysis
Format: ADME, subcellular
Settings: read-out: Stability
observed.property: remaining at 0.25 h, 5 µM (%)
Answers are plain numbers, in %.

Name the recorded remaining at 0.25 h, 5 µM of the compound listed here: `Cc1cc(O)cc(O)c1C(=O)OCCCCCCCCCCCCCC[P+](c1ccccc1)(c1ccccc1)c1ccccc1.[Br-]`
92.3

###

Test: Drug metabolism in human liver microsomes assessed as CYP450 mediated compound hydrolysis by measuring parent compound remaining at 5 uM measured after 120 mins in presence of NADPH by RP-HPLC analysis
Format: ADME
Settings: read-out: Stability
observed.property: remaining at 2 h, 5 µM (%)
Give bare numbers, in %.

Name the recorded remaining at 2 h, 5 µM of the molecule listed here: `Cc1cc(O)cc(O)c1C(=O)OCCCCCCCCCCCCCC[P+](c1ccccc1)(c1ccccc1)c1ccccc1.[Br-]`
93.1

###

Assay: Drug metabolism in human liver S9 fraction assessed as UGT mediated compound hydrolysis by measuring parent compound remaining at 5 uM measured after 60 mins in presence of UDPGA by RP-HPLC analysis
Type: ADME, subcellular
Conditions: read-out: Stability
observed.property: remaining at 1 h, 5 µM (%)
One number for each entry, in %.

Name the recorded remaining at 1 h, 5 µM of the molecule listed here: `Cc1cc(O)cc(O)c1C(=O)OCCCCCCCCCCCCCC[P+](c1ccccc1)(c1ccccc1)c1ccccc1.[Br-]`
58.2

###

Assay: Drug metabolism in human liver S9 fraction assessed as UGT mediated compound hydrolysis by measuring parent compound remaining at 5 uM measured after 30 mins in presence of UDPGA by RP-HPLC analysis
Type: ADME, subcellular
Conditions: read-out: Stability
observed.property: remaining at 0.5 h, 5 µM (%)
Answers are plain numbers, in %.

Name the recorded remaining at 0.5 h, 5 µM of the compound listed here: `Cc1cc(O)cc(O)c1C(=O)OCCCCCCCCCCCCCC[P+](c1ccccc1)(c1ccccc1)c1ccccc1.[Br-]`
66.9

###

Test: Stability in horse serum assessed as compound hydrolysis after 24 hrs by LC/MS analysis
Format: ADME, cell-free, Equus caballus
Settings: read-out: Drug degradation
observed.property: metabolised at 24 h

Name the recorded metabolised at 24 h of the compound listed here: `Cc1cc(O)cc(O)c1C(=O)OCCCCCCCCCCCCCC[P+](c1ccccc1)(c1ccccc1)c1ccccc1.[Br-]`
< 30%

###

Test: Drug metabolism in human liver S9 fraction assessed as UGT mediated compound hydrolysis by measuring parent compound remaining at 5 uM measured after 15 mins in presence of UDPGA by RP-HPLC analysis
Assay type: ADME, subcellular
Conditions: read-out: Stability
observed.property: remaining at 0.25 h, 5 µM (%)
Give bare numbers, in %.

Name the recorded remaining at 0.25 h, 5 µM of the molecule listed here: `Cc1cc(O)cc(O)c1C(=O)OCCCCCCCCCCCCCC[P+](c1ccccc1)(c1ccccc1)c1ccccc1.[Br-]`
79.4

###

Assay: Drug metabolism in human liver S9 fraction assessed as CYP450 mediated compound hydrolysis by measuring parent compound remaining at 5 uM measured immediately in presence of NADPH by RP-HPLC analysis
Format: ADME, subcellular
Details: read-out: Stability
observed.property: remaining at 0 min, 5 µM (%)
Numbers only, in %.

Name the recorded remaining at 0 min, 5 µM of the compound listed here: `Cc1cc(O)cc(O)c1C(=O)OCCCCCCCCCCCCCC[P+](c1ccccc1)(c1ccccc1)c1ccccc1.[Br-]`
100

###

Experiment: Drug metabolism in human liver S9 fraction assessed as CYP450 mediated compound hydrolysis by measuring parent compound remaining at 5 uM measured after 120 mins in presence of NADPH by RP-HPLC analysis
Type: ADME, subcellular
Details: read-out: Stability
observed.property: remaining at 2 h, 5 µM (%)
Give bare numbers, in %.

Name the recorded remaining at 2 h, 5 µM of the compound listed here: `Cc1cc(O)cc(O)c1C(=O)OCCCCCCCCCCCCCC[P+](c1ccccc1)(c1ccccc1)c1ccccc1.[Br-]`
94.1

###

Could you please report measured EC50 for the items listed next?
System: Trypanosoma brucei brucei
Test: Anti-parasitic activity against bloodstream trypomastigote stage of wild-type Trypanosoma brucei brucei Lister 427 after 48 hrs in presence of 5 mM glycerol by resazurin-based assay
Format: functional, organism-based
Details: Lister 427, 48 h
Answers are plain numbers, in µM.

The following compounds have reported results that may help.
Give Trypanosoma brucei brucei EC50 for the following compound: `O=COCCCCCCCCCCCCCCOc1ccc(C=O)c(O)c1`
1.8

Give Trypanosoma brucei brucei EC50 for the following compound: `Cc1cc(O)ccc1C(=O)OCCCCCCCCCCCCCCOC=O`
7.8

Return reported EC50 values for all items listed beneath this line.
1. O=C(OCCCCCCCCCCOC(=O)c1ccc(O)cc1O)c1ccc(O)cc1O
2. Cc1cc(O)cc(O)c1C(=O)OCCCCCCCCCCCCCCBr
3. O=Cc1ccc(OCCCCCCCCCCCCCCBr)cc1O
4. O=C(OCCCCCCCCCCCCCCOC(=O)c1ccc(O)cc1O)c1ccc(O)cc1O
5. O=C(OCCCCCCCCCCCCCC[P+](c1ccccc1)(c1ccccc1)c1ccccc1)c1ccc(O)cc1F.[Br-]
6. Cc1cc(O)ccc1C(=O)OCCCCCCCCCCCCCC[P+](c1ccccc1)(c1ccccc1)c1ccccc1.[Br-]

[12.2, 7.71, 10.7, 15.9, 0.00039, 0.0032]

Return reported EC50 values for all items listed beneath this line.
1. O=C(OCCCCCCCCCCCCCCBr)c1ccc(O)cc1F
2. Cc1cc(O)ccc1C(=O)OCCCCCCCCCCCCCC[n+]1cccc2ccccc21.[Br-]
3. O=C(OCCCCCCCCCCCCOC(=O)c1ccc(O)cc1O)c1ccc(O)cc1O
4. O=Cc1ccc(OCCCCCCCCCCCCCC[n+]2cccc3ccccc32)cc1O.[Br-]
5. Cc1cc(O)cc(O)c1C(=O)OCCCCCCCCCCCCCC[P+](c1ccccc1)(c1ccccc1)c1ccccc1.[Br-]
6. O=C(OCCCCBr)c1ccc(O)cc1O

[7.19, 0.145, 13.6, 1.23, 0.0014, 400]

Return reported EC50 values for all items listed beneath this line.
1. O=COCCCCCCCCCCOC(=O)c1ccc(O)cc1O
2. Cc1cc(O)ccc1C(=O)OCCCCCCCCCCCCCCBr
3. O=Cc1ccc(OCCCCCCCCCCCCCC[P+](c2ccccc2)(c2ccccc2)c2ccccc2)cc1O.[Br-]
4. O=C(OCCCCCCCCCCCCBr)c1ccc(O)cc1O
5. Cc1cc(O)ccc1C(=O)OCCCCCCCCCCCCCCOC(=O)c1ccc(O)cc1C

[17.5, 7.5, 0.067, 6.2, 400]

Return reported EC50 values for all items listed beneath this line.
1. O=C(OCCCCCCCCCCCCCCCCBr)c1ccc(O)cc1O
2. O=C(OCCCCCCBr)c1ccc(O)cc1O
3. O=C(OCCCCCCCCCCCCCCCCOC(=O)c1ccc(O)cc1O)c1ccc(O)cc1O
4. O=COCCCCCCCCCCCCCCCCOC(=O)c1ccc(O)cc1O
5. O=Cc1ccc(OCCCCCCCCCCCCCCOc2ccc(C=O)c(O)c2)cc1O

[11.1, 12.1, 12.4, 5.1, 400]

###

Assay: Stability in horse serum assessed as compound hydrolysis after 2 hrs by LC/MS analysis
Type: ADME, cell-free, Equus caballus
Settings: read-out: Drug degradation
observed.property: metabolised at 2 h

Name the recorded metabolised at 2 h of the compound listed here: `Cc1cc(O)ccc1C(=O)OCCCCCCCCCCCCCC[P+](c1ccccc1)(c1ccccc1)c1ccccc1.[Br-]`
< 20%

###

Experiment: Drug metabolism in human liver microsomes assessed as CYP450 mediated compound hydrolysis by measuring parent compound remaining at 5 uM measured after 15 mins in presence of NADPH by RP-HPLC analysis
Type: ADME
Conditions: read-out: Stability
observed.property: remaining at 0.25 h, 5 µM
Give the figure together with its unit, number first.

Name the recorded remaining at 0.25 h, 5 µM of the molecule listed here: `Cc1cc(O)cc(O)c1C(=O)OCCCCCCCCCCCCCC[P+](c1ccccc1)(c1ccccc1)c1ccccc1.[Br-]`
93.4%

###

Experiment: Stability in mouse serum assessed as compound hydrolysis after 2 hrs by LC/MS analysis
Type: ADME, cell-free
Settings: read-out: Drug degradation
observed.property: metabolised at 2 h (%)
Numbers only, in %.

Name the recorded metabolised at 2 h of the compound listed here: `Cc1cc(O)ccc1C(=O)OCCCCCCCCCCCCCC[P+](c1ccccc1)(c1ccccc1)c1ccccc1.[Br-]`
70

###

Assay: Protein binding in mouse serum up to 24 hrs by LC/MS analysis
Type: ADME, cell-free
Conditions: read-out: PB (converted)
observed.property: fraction unbound at 24 h
Give bare numbers.

Name the recorded fraction unbound at 24 h of the molecule listed here: `O=Cc1ccc(OCCCCCCCCCCCCCC[P+](c2ccccc2)(c2ccccc2)c2ccccc2)cc1O.[Br-]`
0.1
